Exercise: state measured EC50 for each of the compounds provided.
Give the value in µg/mL but do not write µg/mL after it.

What reported EC50 corresponds to "Nc1nc(=O)n([C@H]2C=C(CO)[C@H](O)[C@@H]2O)cc1F" on Vero?
2.05

What reported EC50 corresponds to Nc1ncnc2c1ncn2[C@@H]1C=C(CO)[C@@H](O)[C@H]1O [NEOPLANOCIN A] on Vero?
0.21

----------
Endpoint label: IC50 (µg/mL)
Give the value in µg/mL but do not write µg/mL after it.

What reported IC50 corresponds to Nc1ncnc2c1ncn2[C@@H]1C=C(CO)[C@@H](O)[C@H]1O [NEOPLANOCIN A] on Vero?
20

What reported IC50 corresponds to "Nc1ccn([C@@H]2C=C(CO)[C@@H](O)[C@H]2O)c(=O)n1" on Vero?
1

----------
Assay: in vitro
Conditions: monkey, Vero 76 cells (ATCC CRL 1587)
Endpoint label: selectivity ratio
Could you respond with only the numeric value?

Any idea what its selectivity ratio is? The compound is "Nc1nc(=O)n([C@H]2C=C(CO)[C@H](O)[C@@H]2O)cc1F"
49

Any idea what its selectivity ratio is? The compound is Nc1ncnc2c1ncn2[C@@H]1C=C(CO)[C@@H](O)[C@H]1O [NEOPLANOCIN A]
271

----------
Assay: in vitro
Conditions: rhesus monkey, LLC-MK2 cells (ATCC CRL 7)
Endpoint label: selectivity ratio
Could you respond with only the numeric value?

Any idea what its selectivity ratio is? The compound is Nc1ncnc2c1ncn2[C@@H]1C=C(CO)[C@@H](O)[C@H]1O [NEOPLANOCIN A]
12

Any idea what its selectivity ratio is? The compound is "Nc1nc(=O)n([C@H]2C=C(CO)[C@H](O)[C@@H]2O)cc1F"
189

Any idea what its selectivity ratio is? The compound is "Nc1ccn([C@@H]2C=C(CO)[C@@H](O)[C@H]2O)c(=O)n1"
300

----------
Exercise: state measured IC50 for each of the compounds provided.

What reported IC50 corresponds to "Nc1ncnc2c1ncn2[C@@H]1C=C(CO)[C@@H](O)[C@H]1O" on Vero?
57 µg/mL

What reported IC50 corresponds to "Nc1nc(=O)n([C@H]2C=C(CO)[C@H](O)[C@@H]2O)cc1F" on Vero?
100 µg/mL

What reported IC50 corresponds to "OCC1=C[C@@H](n2cnc3c(O)ncnc32)[C@H](O)[C@@H]1O" on Vero?
> 100 µg/mL

What reported IC50 corresponds to "Nc1ccn([C@@H]2C=C(CO)[C@@H](O)[C@H]2O)c(=O)n1" on Vero?
4 µg/mL

----------
Assay: in vitro
Conditions: monkey, Vero 76 cells (ATCC CRL 1587)
Endpoint label: selectivity ratio

Any idea what its selectivity ratio is? The molecule is "Nc1nc(=O)n([C@H]2C=C(CO)[C@H](O)[C@@H]2O)cc1F"
> 74

Any idea what its selectivity ratio is? The molecule is "Nc1ccn([C@@H]2C=C(CO)[C@@H](O)[C@H]2O)c(=O)n1"
> 20

Any idea what its selectivity ratio is? The molecule is Nc1ncnc2c1ncn2[C@@H]1C=C(CO)[C@@H](O)[C@H]1O [NEOPLANOCIN A]
< 0.2

----------
Assay: in vitro
Conditions: rhesus monkey, LLC-MK2 cells (ATCC CRL 7)
Endpoint label: selectivity ratio
Could you respond with only the numeric value?

Any idea what its selectivity ratio is? The compound is "Nc1ncnc2c1ncn2[C@@H]1C=C(CO)[C@@H](O)[C@H]1O"
360

Any idea what its selectivity ratio is? The compound is "Nc1ccn([C@@H]2C=C(CO)[C@@H](O)[C@H]2O)c(=O)n1"
100

----------
Assay: in vitro
Conditions: rhesus monkey, LLC-MK2 cells (ATCC CRL 7)
Endpoint label: selectivity ratio
Could you respond with only the numeric value?

Any idea what its selectivity ratio is? The molecule is "Nc1ncnc2c1ncn2[C@@H]1C=C(CO)[C@@H](O)[C@H]1O"
230

Any idea what its selectivity ratio is? The molecule is "Nc1ccn([C@@H]2C=C(CO)[C@@H](O)[C@H]2O)c(=O)n1"
550
